assay.notes: Intrinsic clearance in Sprague-Dawley rat liver microsomes at 0.3 mM preincubated for 10 mins followed by NADPH addition measured up to 45 mins by LC/MS analysis
Assay type: ADME
test.context: read-out: CLH
test.readout: CLint scaled at 300 µM (mL/min/kg)

A: c1ccc2c(N3CCC4(CCCC4)CC3)cncc2c1
B: CN1CC2(CCN(c3cncc4ccccc34)CC2)CC1=O
Ask: Between the entries labelled A and B , which has a larger CLint scaled at 300 µM value on record? Choose, then provide that item's label.
Reply: A
(A: 1290 mL/min/kg, B: 76 mL/min/kg)

----------
assay.notes: Solubility of the compound in PBS buffer at pH 2
Assay type: physicochemical
test.readout: solubility (µM)

{"columns": ["smiles.structure", "measurement"],
 "data": [
  ["c1ccc2c(N3CCC4(CCOC4)CC3)cncc2c1", 196],
  ["CN1CC2(CCN(c3cncc4ccccc34)CC2)CC1=O", 149],
  ["c1ccc2c(N3CCC4(CCCC4)CC3)cncc2c1", 176]
]}
